Target: Aminopeptidase N (Plasmodium falciparum FcB1/Columbia, UniProt O96935)
Sequence (O96935 whole entry): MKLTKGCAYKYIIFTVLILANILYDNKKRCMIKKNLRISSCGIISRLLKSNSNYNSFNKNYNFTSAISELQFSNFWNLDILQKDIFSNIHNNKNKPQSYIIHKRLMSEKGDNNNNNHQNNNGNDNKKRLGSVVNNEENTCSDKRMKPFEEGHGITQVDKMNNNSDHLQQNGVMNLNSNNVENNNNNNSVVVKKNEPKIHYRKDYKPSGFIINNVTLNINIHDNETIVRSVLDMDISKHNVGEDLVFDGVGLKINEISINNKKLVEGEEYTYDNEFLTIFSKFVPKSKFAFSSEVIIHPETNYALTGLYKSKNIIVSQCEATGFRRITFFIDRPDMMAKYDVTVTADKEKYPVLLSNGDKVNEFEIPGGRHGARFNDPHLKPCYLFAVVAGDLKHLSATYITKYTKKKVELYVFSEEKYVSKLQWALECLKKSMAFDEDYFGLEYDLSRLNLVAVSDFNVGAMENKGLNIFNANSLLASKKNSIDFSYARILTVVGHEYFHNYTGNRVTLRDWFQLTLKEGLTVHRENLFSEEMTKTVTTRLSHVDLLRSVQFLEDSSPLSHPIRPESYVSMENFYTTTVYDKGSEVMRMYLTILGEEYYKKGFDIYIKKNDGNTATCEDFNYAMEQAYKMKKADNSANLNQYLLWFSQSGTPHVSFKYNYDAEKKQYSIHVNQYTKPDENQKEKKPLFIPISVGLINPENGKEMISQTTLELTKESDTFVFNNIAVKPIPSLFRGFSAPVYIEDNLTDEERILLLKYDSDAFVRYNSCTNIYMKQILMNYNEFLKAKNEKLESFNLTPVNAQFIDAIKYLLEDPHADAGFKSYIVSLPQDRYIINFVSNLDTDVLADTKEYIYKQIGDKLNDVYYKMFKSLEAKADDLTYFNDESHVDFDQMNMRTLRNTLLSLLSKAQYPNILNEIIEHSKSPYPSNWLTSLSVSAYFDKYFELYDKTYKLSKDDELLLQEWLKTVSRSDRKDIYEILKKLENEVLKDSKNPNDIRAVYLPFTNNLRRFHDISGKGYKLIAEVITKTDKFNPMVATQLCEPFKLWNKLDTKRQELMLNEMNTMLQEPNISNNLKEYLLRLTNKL
Test: malaria alanyl aminopeptidase activity blockers – biochemical, fluorogenic H-Leu-NHMec substrate, 1536-well (AID 1445)
Parameters: species or system Plasmodium falciparum 3D7, 3D7
Activity calls are given as the source filed them.
experimental-readout: IC50

>>> recorded_measurement("O=C(NCc1cccs1)C1CCN(S(=O)(=O)c2cccs2)CC1")
"51.9 µM (active)"
>>> recorded_measurement("COc1ccc(/C=C2/SC(=O)N(NS(=O)(=O)c3ccccc3)C2=S)cc1OC")
"30.5 µM (active)"
>>> recorded_measurement("CC1=NN(c2ccc(Cl)c(C(=O)O)c2)C(=O)/C1=C\\c1ccc(-c2ccc(C(=O)O)cc2)o1")
"2.41 µM (active)"

// query IC50 value for entry Cc1ccc(N2C(=O)/C(=C\Nc3ccccc3-c3nnc(S)nc3O)c3ccccc3C2=O)c(C)c1
27.4 µM (active)

Entry to check: Cc1ccc2c(c1)c1nnc(SCC(=O)N3CCCc4ccccc43)nc1n2CC(=O)O
26.8 µM (active)

----------
Molecular target: Sentrin-specific protease 8 (Homo sapiens);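 note: kinetic enzyme assay of SENP8 cleaving a Nedd8 protein substrate, dose-response confirmation of screening hits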
Sequence (Q96LD8 whole entry): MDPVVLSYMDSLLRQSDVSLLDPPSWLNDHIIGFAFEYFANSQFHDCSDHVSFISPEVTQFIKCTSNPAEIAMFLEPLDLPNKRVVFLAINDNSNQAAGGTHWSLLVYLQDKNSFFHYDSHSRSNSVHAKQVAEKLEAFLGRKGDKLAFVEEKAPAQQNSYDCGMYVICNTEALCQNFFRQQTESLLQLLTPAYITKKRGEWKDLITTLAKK
Format: functional
The source made the active and inactive calls.
Outcome field: choose from active, inactive

Field: example entries. Status: answers known.
>>> class_label("O=C1Cc2ccccc2C(=O)N1c1ccc(F)cc1Cl")
"active"
>>> class_label("CC1Cc2ccccc2N1C(=O)COC(=O)c1ccc([N+](=O)[O-])o1 (stereo not given)")
"active"

Which result was noted for this compound in the test: COC(=O)c1ccccc1-c1ccc(C(c2c(C)n[nH]c2O)c2c(C)n[nH]c2O)o1
active

Entry to check: CN(C)c1ccc(NC(=O)Oc2ccccc2)cc1
inactive

Entry to check: COc1ccc(Cc2nnc(SCC(=O)N3CCc4ccccc4C3)o2)cc1
active

----------
Target: Paired box protein Pax-8 (Homo sapiens, UniProt Q06710)
Sequence (Q06710 whole entry): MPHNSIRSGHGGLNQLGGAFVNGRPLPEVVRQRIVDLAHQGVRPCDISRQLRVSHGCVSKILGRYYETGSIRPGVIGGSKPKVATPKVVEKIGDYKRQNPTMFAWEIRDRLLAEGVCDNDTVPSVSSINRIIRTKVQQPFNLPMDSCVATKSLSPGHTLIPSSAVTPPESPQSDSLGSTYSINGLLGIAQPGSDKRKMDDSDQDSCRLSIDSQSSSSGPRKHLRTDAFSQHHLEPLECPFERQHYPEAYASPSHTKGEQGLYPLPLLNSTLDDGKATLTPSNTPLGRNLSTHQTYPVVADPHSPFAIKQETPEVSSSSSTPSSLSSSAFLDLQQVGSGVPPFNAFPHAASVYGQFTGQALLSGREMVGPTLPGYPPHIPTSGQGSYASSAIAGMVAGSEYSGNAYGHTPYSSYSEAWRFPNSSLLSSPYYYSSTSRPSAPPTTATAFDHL
Assay: PAX8 transcriptional activity inhibition in RMG-I – RMG-I cells, luciferase, cherry-pick, dose response (AID 687027);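 note: luciferase reporter driven by Pax8 target thyroperoxidase promoter measured by SteadyGlo luminescence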
Type: functional, cell-based
Calls of active or inactive are those of the source.
As shown below, each of these molecules has a reported AC50 value.

Reference set, count: 4
>>> recorded_measurement("O=C(Nc1ccc(F)cc1)N1CC(=O)N2[C@@H](CO)[C@@H](c3ccc(C#Cc4ccc(F)cc4)cc3)[C@@H]2C1")
"10.4 µM (active)"
>>> recorded_measurement("CCCC#Cc1ccc([C@H]2[C@H]3CN(S(=O)(=O)Cc4ccccc4)CCCCN3[C@H]2CO)cc1")
"10.9 µM (active)"
>>> recorded_measurement("C[C@@H]1CCCCO[C@H](CN(C)C(=O)c2ccccc2)[C@H](C)CN([C@@H](C)CO)C(=O)c2cc(NC(=O)Nc3ccc(C(F)(F)F)cc3)ccc2O1")
"6.57 µM (active)"
>>> recorded_measurement("CCCC#Cc1ccc([C@@H]2[C@H](CO)N3CCCCN(S(=O)(=O)Cc4ccccc4)C[C@@H]23)cc1")
"29.2 µM (active)"

# context switch: different molecule, same AC50
// query AC50 value for entry O=C(Nc1cccc(F)c1)N1CCCCN2[C@@H](CO)[C@@H](c3ccc(-c4ccncc4)cc3)[C@@H]2C1
32.2 µM (active)

----------
Target: Bcl-2-like protein 10 (Homo sapiens)
Sequence (Q9HD36 whole entry): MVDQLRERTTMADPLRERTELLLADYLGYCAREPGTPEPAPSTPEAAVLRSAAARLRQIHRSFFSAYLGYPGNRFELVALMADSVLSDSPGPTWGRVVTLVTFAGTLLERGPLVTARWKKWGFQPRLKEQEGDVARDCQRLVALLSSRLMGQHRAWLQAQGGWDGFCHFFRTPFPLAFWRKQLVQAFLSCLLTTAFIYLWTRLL
Experiment: Bcl-B/TR3 peptide binding disruption – biochemical, fluorescence polarization, FITC-TR3 peptide, selectivity assay for Bfl-1 inhibitor project, primary screen (AID 748);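 note: fluorescence polarization from a fluorescein-labelled TR3 peptide binding purified Bcl-B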
Activity calls are given as the source filed them.
Outcome field: choose from 1.0 for active, 0.0 for inactive

Field: example entries. Status: answers known.
>>> class_label("Nc1cc2nsnc2cc1Br")
1.0
>>> class_label("O=C(Nc1ccccc1)c1ccc2nc(-c3ccco3)c(-c3ccco3)nc2c1")
0.0
>>> class_label("O=C1c2ccccc2CC1Sc1nnc(-c2ccccn2)o1 (centres undefined)")
0.0

Which result was noted for this compound in the test: Cc1ccc(-n2nc3ccc(NC(=O)c4ccc5c(c4)OCO5)cc3n2)cc1
0.0

----------
Assay: cells
Type: functional
The source made the active and inactive calls.
experimental-readout: IC50

>>> recorded_measurement("O=C(Nc1nnc(C2=COCCO2)o1)c1cccc(C(F)(F)F)c1")
"4.89 µM (active)"
>>> recorded_measurement("N#CC1=C(N)Oc2[nH]nc(-c3cccnc3)c2C1c1ccc([N+](=O)[O-])o1 (centres undefined)")
"9.19 µM (active)"
>>> recorded_measurement("O=C(COC(=O)c1ccc([N+](=O)[O-])s1)Nc1ccc(Cl)cn1")
"8.49 µM (active)"

# context switch: different compound, same IC50
// query IC50 value for entry CCOC(=O)c1cc(-c2csc(COc3ccccc3)n2)on1
< 0.1 µM (active)

----------
Reported values: IC50 for UniProt:Q92731, one per item.
Sequence (Q92731 whole entry): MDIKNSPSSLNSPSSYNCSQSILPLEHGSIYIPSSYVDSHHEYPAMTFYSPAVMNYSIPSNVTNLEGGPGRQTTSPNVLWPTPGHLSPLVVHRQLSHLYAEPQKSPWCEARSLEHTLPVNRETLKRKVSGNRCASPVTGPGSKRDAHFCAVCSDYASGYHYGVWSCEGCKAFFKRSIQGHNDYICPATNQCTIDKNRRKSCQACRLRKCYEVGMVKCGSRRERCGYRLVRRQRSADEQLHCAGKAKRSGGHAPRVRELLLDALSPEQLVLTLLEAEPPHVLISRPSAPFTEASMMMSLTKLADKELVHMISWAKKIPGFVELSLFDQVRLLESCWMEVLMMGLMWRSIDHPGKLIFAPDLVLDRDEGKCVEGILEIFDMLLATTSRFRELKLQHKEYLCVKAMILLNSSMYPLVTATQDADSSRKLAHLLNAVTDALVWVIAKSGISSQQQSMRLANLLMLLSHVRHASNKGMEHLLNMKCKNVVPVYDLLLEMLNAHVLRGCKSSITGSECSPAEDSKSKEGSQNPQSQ
The source made the active and inactive calls.

Reference set, count: 3
>>> recorded_measurement("CCOC(=O)CNC(=O)C(Cc1ccccc1)NS(=O)(=O)c1ccc2c(c1)CCC(=O)N2 (stereo unspecified)")
"> 50 µM (not active)"
>>> recorded_measurement("CCc1c(C)nc(SCC(=O)c2cccs2)c(C#N)c1C")
"> 50 µM (not active)"
>>> recorded_measurement("Oc1c2c(nc3ccccc13)C(=C1CCCC1)CC2")
"1.69 µM (active)"

# query: IC50 | item CCOc1ccccc1C(=O)N1CCN=C1SC | system: UniProt:Q92731
> 50 µM (not active)

Entry to check: CCOC(=O)c1cnn(-c2nc(SC)nc3sc4c(c23)CCC4)c1N
> 50 µM (not active)

Entry to check: CCN1C2=C(C(=O)CCC2)C(c2ccc(O)c(Br)c2)C2=C1CCCC2=O
> 50 µM (not active)

----------
As shown below, each of these compounds has a reported IC50 value.
Molecular target: Prothrombin (Bos taurus, UniProt P00735)
Assay: thrombin protease inhibitors – biochemical, fluorescence polarization, uHTS hits, dose response (AID 602369)
Type: functional
Active and inactive are the calls of the source.

>>> recorded_measurement("C=CCN1C(=O)/C(=C\\Nc2cccc([N+](=O)[O-])c2)C(=O)N(CCCC)C1=O")
"42.7 µM (active)"
>>> recorded_measurement("CCC(CO)Oc1cc(NC(=O)c2ccc(N)cc2)c2ncn(C(C)C)c2c1 (configuration not stated)")
"> 100 µM (inactive)"

# query: IC50 | item Cc1c(NC(=O)c2cccc(-c3cc4ccccc4oc3=O)c2)cccc1-c1nc2ncccc2o1 | system: Prothrombin (Bos taurus, UniProt P00735)
92 µM (active)

Entry to check: C=CCCC(=O)N1C[C@H]2CON(C)[C@H]2C[C@H]1c1ccc(N2CCCCC2)cc1
57.2 µM (active)

----------
Biological target: Cytochrome P450 2C9 (Homo sapiens)
Sequence (P11712 whole entry): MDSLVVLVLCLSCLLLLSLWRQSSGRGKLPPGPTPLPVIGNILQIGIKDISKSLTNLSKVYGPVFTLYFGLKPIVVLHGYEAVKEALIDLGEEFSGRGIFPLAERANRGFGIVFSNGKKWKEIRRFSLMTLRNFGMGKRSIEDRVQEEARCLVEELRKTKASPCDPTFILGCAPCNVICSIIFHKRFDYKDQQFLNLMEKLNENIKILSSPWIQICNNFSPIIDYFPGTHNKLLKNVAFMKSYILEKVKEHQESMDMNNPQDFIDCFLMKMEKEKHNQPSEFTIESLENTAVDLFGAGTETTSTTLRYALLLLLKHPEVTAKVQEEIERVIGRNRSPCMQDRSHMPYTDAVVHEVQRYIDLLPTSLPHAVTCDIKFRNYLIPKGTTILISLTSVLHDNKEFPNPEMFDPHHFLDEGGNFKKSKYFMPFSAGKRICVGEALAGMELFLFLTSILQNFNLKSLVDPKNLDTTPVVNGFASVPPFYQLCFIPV
experimental-readout: AC50

Reference set, count: 3
>>> recorded_measurement("COc1ccc(-c2nc3ccccc3c(=O)n2N)cc1")
"2.82 µM (inconclusive)"
>>> recorded_measurement("c1cc(N2CCCC3(CCNCC3)C2)ccn1")
"25.1 µM (inconclusive)"
>>> recorded_measurement("Cc1ccc(OCCCC(=O)N2CCOCC2)cc1")
"39.8 µM (inconclusive)"

// query AC50 value for entry Cn1c(C(=O)NCC2CCCO2)cc2c(=O)n3ccccc3nc21 (centres undefined)
25.1 µM (inconclusive)

----------
Target: Sentrin-specific protease 7 (Homo sapiens, UniProt Q9BQF6);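 note: Luminescence-based dose-response confirmation of ultra-high-throughput screening hits, measuring inhibition of SENP7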
Sequence (Q9BQF6 whole entry): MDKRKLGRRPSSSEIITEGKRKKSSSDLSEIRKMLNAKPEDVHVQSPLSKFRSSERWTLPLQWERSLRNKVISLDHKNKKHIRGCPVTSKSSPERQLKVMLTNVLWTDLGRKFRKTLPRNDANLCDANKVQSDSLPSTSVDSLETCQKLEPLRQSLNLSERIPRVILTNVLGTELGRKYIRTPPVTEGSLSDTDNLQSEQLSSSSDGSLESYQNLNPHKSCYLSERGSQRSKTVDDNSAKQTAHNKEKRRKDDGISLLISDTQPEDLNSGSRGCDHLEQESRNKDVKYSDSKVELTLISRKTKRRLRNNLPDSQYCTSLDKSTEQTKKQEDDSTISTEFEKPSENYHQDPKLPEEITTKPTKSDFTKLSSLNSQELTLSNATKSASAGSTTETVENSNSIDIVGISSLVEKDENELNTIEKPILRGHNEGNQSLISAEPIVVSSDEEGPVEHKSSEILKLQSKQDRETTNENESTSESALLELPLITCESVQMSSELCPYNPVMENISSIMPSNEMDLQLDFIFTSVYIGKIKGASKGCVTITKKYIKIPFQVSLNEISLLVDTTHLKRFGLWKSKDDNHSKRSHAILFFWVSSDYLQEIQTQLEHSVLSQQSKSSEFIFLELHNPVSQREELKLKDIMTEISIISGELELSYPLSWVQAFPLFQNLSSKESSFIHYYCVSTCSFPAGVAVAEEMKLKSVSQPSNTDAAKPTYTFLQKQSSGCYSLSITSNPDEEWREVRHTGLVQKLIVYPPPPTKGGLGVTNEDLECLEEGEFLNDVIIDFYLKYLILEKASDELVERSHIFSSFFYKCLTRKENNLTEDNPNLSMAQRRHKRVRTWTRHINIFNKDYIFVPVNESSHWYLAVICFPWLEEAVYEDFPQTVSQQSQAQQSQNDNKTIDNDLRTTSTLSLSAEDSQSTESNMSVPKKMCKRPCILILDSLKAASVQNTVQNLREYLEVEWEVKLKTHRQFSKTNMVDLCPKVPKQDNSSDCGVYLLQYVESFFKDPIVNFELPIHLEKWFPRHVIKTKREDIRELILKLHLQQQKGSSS
Assay type: functional
Active and inactive are the calls of the source.
As shown below, each of these molecules has a reported IC50 value.

Reference set, count: 5
>>> recorded_measurement("COC(=O)c1ccc(-c2ccc(F)cc2)nc1C")
"8.25 µM (active)"
>>> recorded_measurement("Brc1ccc(-c2cn3nc4c(nc3n2)CCCC4)cc1")
"21.2 µM (active)"
>>> recorded_measurement("COc1ccc(C(C[N+](=O)[O-])c2c(C)[nH]n(-c3ccccc3)c2=O)cc1 (stereo unspecified)")
"7.15 µM (active)"
>>> recorded_measurement("COc1cccc(C(=O)NC(=S)Nc2ccc(N(C)C)cc2)c1")
"6.14 µM (active)"
>>> recorded_measurement("O=C(COC(=O)c1ccc([N+](=O)[O-])s1)Nc1cccc(S(=O)(=O)/N=C2/CCCCCN2)c1")
"7.08 µM (active)"

// query IC50 value for entry O=[N+]([O-])c1ccc(O)c(/C=N/NC(=S)Nc2ccc(Cl)cc2Cl)c1
3.08 µM (active)
